test name: in vitro
experimental context: African green monkey, CC50 with all other dyes including ALB-A
measurement type: CC50

## Input Using the record for "Nc1cc2nc[nH]c2c(=O)[nH]1" , report its CC50.
## Output 2.4 to 7 µM

* * *

test name: in vitro
experimental context: African green monkey, CC50 with ALB-F
measurement type: CC50

## Input Using the record for "Nc1cc2nc[nH]c2c(=O)[nH]1" , report its CC50.
## Output 83 to 93 µM

* * *

test name: in vitro
experimental context: African green monkey, CC50 (toxicity) with NR, VTG, and WST-1
measurement type: CC50

## Input Using the record for O=c1cnn([C@@H]2O[C@H](CO)[C@@H](O)[C@H]2O)c(=O)[nH]1 [6-Azauridine] , report its CC50.
## Output 6.1 to 17.5 µM
